- PROTOCOL_NOTES: Partition coefficient, log P at pH 2.3
- Type: physicochemical
- STATED_CONDITIONS: octanol/water
ENDPOINT_LABEL: logP
# respond with the number and nothing more

Exercise: Consider the compound shown here: "CC(C)C[C@H]1C(=O)O[C@H](CC2CCCCC2)C(=O)N(C)[C@@H](CC(C)C)C(=O)O[C@H](C)C(=O)N(C)[C@@H](CC(C)C)C(=O)O[C@H](C)C(=O)N1C" What is its recorded logP?
Solution: 5.57

Exercise: Follow-up item: "CC[C@@H](C)[C@H]1C(=O)O[C@H](C)C(=O)N(C)[C@@H](Cc2ccccc2)C(=O)O[C@H](C)C(=O)N(C)[C@@H]([C@H](C)CC)C(=O)O[C@H](C)C(=O)N1C"
Solution: 4.28

Exercise: Follow-up item: "CC[C@@H](C)[C@H]1C(=O)O[C@H](C(C)C)C(=O)N(C)[C@@H](Cc2ccccc2)C(=O)O[C@H](C(C)C)C(=O)N(C)[C@@H]([C@H](C)CC)C(=O)O[C@H](C(C)C)C(=O)N1C"
Solution: 5.46

Exercise: Follow-up item: "CC[C@@H](C)[C@H]1C(=O)O[C@H](C)C(=O)N(C)[C@@H](CC2CCCCC2)C(=O)O[C@H](C)C(=O)N(C)[C@@H]([C@H](C)CC)C(=O)O[C@H](C)C(=O)N1C"
Solution: 4.91

Exercise: Follow-up item: "CC(C)C[C@H]1C(=O)O[C@H](Cc2ccccc2)C(=O)N(C)[C@@H](CC(C)C)C(=O)O[C@H](C)C(=O)N(C)[C@@H](CC(C)C)C(=O)O[C@H](C)C(=O)N1C"
Solution: 4.63

Exercise: Follow-up item: "CC[C@@H](C)[C@H]1C(=O)O[C@H](C(C)C)C(=O)N(C)[C@@H](CC2CCCCC2)C(=O)O[C@H](C(C)C)C(=O)N(C)[C@@H]([C@H](C)CC)C(=O)O[C@H](C(C)C)C(=O)N1C"
Solution: 6.3
